FYI, the data here is from patent US20240174693A1.

assay: Hepatocyte stability; details: rat, hepatocytes
measure-name: CLint scaled at 1 μM
Remember to follow the number with its unit.

-- ask Bench note: what CLint scaled at 1 μM did CC(C)(NC(=O)[C@H]1[C@@H]2CNC[C@H]1C2)c1nc(C2CC2)c2ccccn12 [Compound 9] show?
-- reply 3.17 mL/min/kg

* * *

Let's go through some IC50 measurements on CYP2C19 (Homo sapiens, UniProt P33261) together.
Sequence (P33261 whole entry): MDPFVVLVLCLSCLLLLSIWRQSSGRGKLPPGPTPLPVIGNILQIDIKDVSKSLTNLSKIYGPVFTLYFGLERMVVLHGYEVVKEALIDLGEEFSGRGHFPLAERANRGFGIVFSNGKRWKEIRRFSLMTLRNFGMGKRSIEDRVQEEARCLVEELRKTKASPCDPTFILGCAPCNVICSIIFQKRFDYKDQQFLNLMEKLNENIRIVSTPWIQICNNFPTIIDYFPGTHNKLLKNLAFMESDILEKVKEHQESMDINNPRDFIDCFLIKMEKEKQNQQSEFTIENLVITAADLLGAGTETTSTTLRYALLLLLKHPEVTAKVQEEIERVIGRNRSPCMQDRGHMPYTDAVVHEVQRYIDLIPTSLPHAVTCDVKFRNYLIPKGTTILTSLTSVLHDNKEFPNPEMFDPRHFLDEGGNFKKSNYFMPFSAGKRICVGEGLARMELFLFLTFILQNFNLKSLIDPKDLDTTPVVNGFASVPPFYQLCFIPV

-- ask Bench note: what IC50 did CC(C)(NC(=O)[C@H]1[C@@H]2CNC[C@H]1C2)c1ncc2c(Br)cccn12 [Compound 8] show?
-- reply > 10 µM

-- ask Bench note: what IC50 did CC(C)(NC(=O)[C@H]1[C@@H]2CNC[C@H]1C2)c1ncc2c(Cl)cccn12 [Compound 7] show?
-- reply > 10 µM

* * *

target: hERG potassium channel (Homo sapiens); assay: in vitro; conditions: hERG Current Inhibition Rate (%) Mean
measure-name: inhibition at 1 µM (%)
# number only, unit % dropped from output

-- ask Bench note: what inhibition at 1 µM did CC(C)(NC(=O)[C@H]1[C@@H]2CNC[C@H]1C2)c1ncc2c(Br)cccn12 show?
-- reply -3.67

* * *

Could you please report measured half-life at 1 μM for the items listed next?
Assay: Metabolic stability in liver microsomes (rat)
Format: in vitro ADME
Conditions: pH 7.4, read-out: Metabolic stability T½
Experimental: Buffers A-C were prepared for use in the metabolic study. The buffers were as follows: Buffer A: 1.0 L of 0.1 M monobasic Potassium Phosphate buffer containing 1.0 mM EDTA; Buffer B: 1.0 L of 0.1 M Dibasic Potassium Phosphate buffer containing 1.0 mM EDTA; and Buffer C: 0.1 M Potassium Phosphate buffer, 1.0 mM EDTA, pH 7.4 by titrating 700 mL of buffer B with buffer A while monitoring with the pH meter. Ketanserin was used as the reference compound. […]
# number only, unit h dropped from output

-- ask Bench note: what half-life at 1 μM did CC(C)(NC(=O)[C@H]1[C@@H]2CNC[C@H]1C2)c1nc(C2CC2)c2ccccn12 [Compound 9] show?
-- reply 23.9

-- ask Bench note: what half-life at 1 μM did CC(C)(NC(=O)[C@H]1[C@@H]2CNC[C@H]1C2)c1ncc2c(Cl)cccn12 [Compound 7] show?
-- reply 2.25

-- ask Bench note: what half-life at 1 μM did CC(C)(NC(=O)[C@H]1[C@@H]2CNC[C@H]1C2)c1ncc2c(Br)cccn12 [Compound 8] show?
-- reply 9.71

* * *

target: hERG potassium channel (Homo sapiens, UniProt Q12809); test: in vitro; details: hERG Current Inhibition Rate (%) Mean
Sequence (Q12809 whole entry): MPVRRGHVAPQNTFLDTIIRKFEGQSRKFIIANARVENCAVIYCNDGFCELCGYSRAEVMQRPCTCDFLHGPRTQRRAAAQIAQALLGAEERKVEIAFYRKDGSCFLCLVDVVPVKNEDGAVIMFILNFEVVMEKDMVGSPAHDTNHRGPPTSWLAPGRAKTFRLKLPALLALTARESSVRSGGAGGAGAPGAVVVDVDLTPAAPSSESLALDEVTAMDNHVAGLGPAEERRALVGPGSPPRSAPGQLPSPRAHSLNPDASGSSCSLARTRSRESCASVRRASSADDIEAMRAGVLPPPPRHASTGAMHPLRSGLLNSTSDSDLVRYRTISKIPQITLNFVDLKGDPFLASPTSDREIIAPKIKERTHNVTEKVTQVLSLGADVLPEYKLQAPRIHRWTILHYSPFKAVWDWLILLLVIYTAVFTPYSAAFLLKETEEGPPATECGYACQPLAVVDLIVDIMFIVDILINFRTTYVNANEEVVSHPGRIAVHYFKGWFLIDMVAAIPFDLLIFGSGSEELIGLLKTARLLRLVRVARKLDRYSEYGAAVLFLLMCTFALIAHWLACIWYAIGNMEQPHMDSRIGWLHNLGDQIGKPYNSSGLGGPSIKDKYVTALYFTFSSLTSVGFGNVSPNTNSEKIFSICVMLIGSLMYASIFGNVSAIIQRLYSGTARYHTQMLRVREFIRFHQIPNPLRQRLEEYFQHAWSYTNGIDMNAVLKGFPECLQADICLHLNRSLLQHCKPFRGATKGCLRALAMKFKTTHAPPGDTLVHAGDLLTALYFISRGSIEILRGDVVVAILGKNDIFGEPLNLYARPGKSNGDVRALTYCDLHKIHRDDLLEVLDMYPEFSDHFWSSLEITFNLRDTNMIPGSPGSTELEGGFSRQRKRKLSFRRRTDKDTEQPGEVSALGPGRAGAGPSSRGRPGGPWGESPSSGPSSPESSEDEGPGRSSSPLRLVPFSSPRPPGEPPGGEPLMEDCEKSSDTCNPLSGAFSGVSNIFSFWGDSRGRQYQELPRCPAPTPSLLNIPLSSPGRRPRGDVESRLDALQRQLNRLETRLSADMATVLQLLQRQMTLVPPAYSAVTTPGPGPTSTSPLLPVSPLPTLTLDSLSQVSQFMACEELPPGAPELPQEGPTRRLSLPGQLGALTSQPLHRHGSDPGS
measure-name: inhibition at 0.3 µM (%)
# number only, unit % dropped from output

-- ask Short answer please: inhibition at 0.3 µM, hERG potassium channel (Homo sapiens, UniProt Q12809), entry CC(C)(NC(=O)[C@H]1[C@@H]2CNC[C@H]1C2)c1ncc2c(Br)cccn12
-- reply -3.49

* * *

Could you please report measured IC50 for the items listed next?

-- ask Short answer please: IC50, CYP2D6 (Homo sapiens), entry CC(C)(NC(=O)[C@H]1[C@@H]2CNC[C@H]1C2)c1nc(C2CC2)c2ccccn12
-- reply > 10 µM

-- ask Short answer please: IC50, CYP2D6 (Homo sapiens), entry CC(C)(NC(=O)[C@H]1[C@@H]2CNC[C@H]1C2)c1ncc2c(Cl)cccn12
-- reply > 10 µM

-- ask Short answer please: IC50, CYP2D6 (Homo sapiens), entry CC(C)(NC(=O)[C@H]1[C@@H]2CNC[C@H]1C2)c1ncc2c(Br)cccn12
-- reply > 10 µM

* * *

experiment: In vivo PK study; conditions: po, 3 mg/kg p.o.
measure-name: Cmax (ng/mL)
# number only, unit ng/mL dropped from output

-- ask Bench note: what Cmax did CC(C)(NC(=O)[C@@H]1[C@@H]2C[C@H]1CN(C(=N)N)C2)c1nc(C2CC2)c2ccccn12 show?
-- reply 5.56

* * *

experiment: Metabolic stability in liver microsomes (rat); type: in vitro ADME; settings: pH 7.4
Could you please report measured CLint scaled at 1 μM for the items listed next?
# number only, unit mL/min/kg dropped from output

-- ask Bench note: what CLint scaled at 1 μM did CC(C)(NC(=O)[C@H]1[C@@H]2CNC[C@H]1C2)c1ncc2c(Br)cccn12 [Compound 8] show?
-- reply 2.98

-- ask Bench note: what CLint scaled at 1 μM did CC(C)(NC(=O)[C@H]1[C@@H]2CNC[C@H]1C2)c1ncc2c(Cl)cccn12 [Compound 7] show?
-- reply 18.4

-- ask Bench note: what CLint scaled at 1 μM did CC(C)(NC(=O)[C@H]1[C@@H]2CNC[C@H]1C2)c1nc(C2CC2)c2ccccn12 [Compound 9] show?
-- reply 1.73

* * *

Let's go through some IC50 measurements on CYP3A4 (Homo sapiens, UniProt P08684) together.
Sequence (P08684 whole entry): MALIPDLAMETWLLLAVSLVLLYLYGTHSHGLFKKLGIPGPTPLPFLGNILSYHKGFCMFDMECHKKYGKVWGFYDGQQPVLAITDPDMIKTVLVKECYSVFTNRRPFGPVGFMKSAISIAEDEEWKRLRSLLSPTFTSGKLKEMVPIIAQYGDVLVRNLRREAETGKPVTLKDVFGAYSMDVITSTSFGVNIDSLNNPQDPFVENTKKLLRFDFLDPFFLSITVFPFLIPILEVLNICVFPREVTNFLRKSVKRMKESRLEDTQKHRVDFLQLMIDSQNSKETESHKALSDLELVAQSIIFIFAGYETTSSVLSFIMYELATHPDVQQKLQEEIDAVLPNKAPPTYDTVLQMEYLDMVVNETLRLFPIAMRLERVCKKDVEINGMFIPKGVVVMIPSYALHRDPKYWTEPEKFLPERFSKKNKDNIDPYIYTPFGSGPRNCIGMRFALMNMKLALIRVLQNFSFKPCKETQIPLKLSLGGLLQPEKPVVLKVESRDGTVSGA

-- ask Bench note: what IC50 did CC(C)(NC(=O)[C@H]1[C@@H]2CNC[C@H]1C2)c1nc(C2CC2)c2ccccn12 show?
-- reply > 10 µM

-- ask Bench note: what IC50 did CC(C)(NC(=O)[C@H]1[C@@H]2CNC[C@H]1C2)c1ncc2c(Br)cccn12 show?
-- reply > 10 µM

-- ask Bench note: what IC50 did CC(C)(NC(=O)[C@H]1[C@@H]2CNC[C@H]1C2)c1ncc2c(Cl)cccn12 show?
-- reply > 10 µM

* * *

assay: Thermodynamic solubility; type: physicochemical; conditions: aqueous buffer, thermodynamic from solid; PBS(Ph 7.4), equilibrated over night at room temperature; read-out: Thermodynamic Solubility Solubility
Could you please report measured solubility thermodynamic for the items listed next?
# number only, unit mg/mL dropped from output

-- ask Bench note: what solubility thermodynamic did CC(C)(NC(=O)[C@H]1[C@@H]2CNC[C@H]1C2)c1ncc2c(Br)cccn12 show?
-- reply 2.08

-- ask Bench note: what solubility thermodynamic did CC(C)(NC(=O)[C@H]1[C@@H]2CNC[C@H]1C2)c1ncc2c(Cl)cccn12 show?
-- reply 1.68

-- ask Bench note: what solubility thermodynamic did CC(C)(NC(=O)[C@H]1[C@@H]2CNC[C@H]1C2)c1nc(C2CC2)c2ccccn12 show?
-- reply 2.25

* * *

experiment: Metabolic stability in liver microsomes (human); assay type: in vitro ADME; details: pH 7.4, read-out: Metabolic stability T½
measure-name: half-life at 1 μM
Remember to follow the number with its unit.

-- ask Bench note: what half-life at 1 μM did CC(C)(NC(=O)[C@H]1[C@@H]2CNC[C@H]1C2)c1ncc2c(Br)cccn12 show?
-- reply 1.4 h

* * *

target: hERG potassium channel (Homo sapiens, UniProt Q12809); test: in vitro; details: hERG Current Inhibition Rate (%) Mean
measure-name: inhibition at 10 µM (%)
# number only, unit % dropped from output

-- ask Bench note: what inhibition at 10 µM did CC(C)(NC(=O)[C@H]1[C@@H]2CNC[C@H]1C2)c1ncc2c(Br)cccn12 show?
-- reply -1.66

* * *

experiment: Metabolic stability in liver microsomes (human); format: in vitro ADME; settings: pH 7.4
measure-name: CLint scaled at 1 μM
Remember to follow the number with its unit.

-- ask Bench note: what CLint scaled at 1 μM did CC(C)(NC(=O)[C@H]1[C@@H]2CNC[C@H]1C2)c1ncc2c(Br)cccn12 show?
-- reply 29.5 mL/min/kg
